// values below are reported normalized growth
Assay Overview: chemical genetic growth profiling, strain panel (AID 1159580);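 also: tested at 20 µM; growth read once vehicle control cultures reached saturation at 30 °C; 1 = growth at the plate median or of vehicle wells; lower values mean less growth of the strain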
Measurement Setup: S. cerevisiae deletion strains, growth OD, locus YER015W, strain faa2, active compounds read low
Among all 5,500 compounds or so, about 2,000 (36%) were called active. Not shown: some 18% with an inconclusive outcome. Some of the results follow.

Nc1nccs1 | 0.991 (inactive)
CC1(C)O[C@@H]2CC3C4CCC5=CC(=O)C=C[C@]5(C)C4[C@@H](O)C[C@]3(C)[C@]2(C(=O)CO)O1 (stereo partly specified) | 1.01 (inactive)
CC1(C)C2CC(=O)O[C@@]3(C)C4=CC(=O)O[C@@H](c5ccoc5)[C@]4(C)CCC3[C@@]2(C)C=C[C@H]1O (stereo partly specified) | 0.975 (inactive)
CC1=C(/C=C/C(C)=C/C=C/C(C)=C/CO)C(C)(C)CCC1 | 1.01 (inactive)
CCOC(=O)c1ccc(N)cc1 | 1.01 (inactive)

# next compound below
Qu. Please supply the value of reported normalized growth for the item `Cc1ccc(C(C)C)cc2c(C)ccc1-2`
Ans. 1 (inactive)

----------
Assay Overview: chemical genetic growth profiling, strain panel (AID 1159580);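 also: tested at 20 µM; growth read once vehicle control cultures reached saturation at 30 °C; 1 = growth at the plate median or of vehicle wells; lower values mean less growth of the strain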
Measurement Setup: S. cerevisiae deletion strains, growth OD, locus YER016W, strain bim1
Among all 5,500 compounds or so, about 2,000 (36%) were called active. Inconclusive results (about 18%) are left out. Rule as the data show it: active = normalized growth mostly below about 0.91 (no sharp cut-off); inconclusive = no clear call, values can overlap the other calls; inactive = mostly above about 0.92. The list shows a part of the results.
Output constraint: value belongs to active, inactive

COc1ccc(/C=C/c2cc(O)cc(O)c2)cc1 | inactive

Qu. Give the logged outcome of this assay for the following compound: `CC[C@]12CCCN3CCc4c(n(c5ccccc45)C(=O)C1)[C@@H]32`
Ans. inactive

Qu. Which outcome was entered for the compound `CC[C@]12CCCN3CCc4c(n(c5ccccc45)[C@](O)(C(=O)OC)C1)[C@@H]32` in this test?
Ans. inactive

Qu. Please let me know the test result on file for CCN(CC)CCOC(=O)C(Cc1cccc2ccccc12)CC1CCCO1 (stereo unspecified) .
Ans. inactive

Qu. Which result was noted for this compound in the test: CC(=O)O[C@H]1C[C@@H](OC(C)=O)C(C)(C)C2C[C@@H](OC(C)=O)[C@]3(C)C(CC[C@@]4(C)[C@H](c5ccoc5)C(=O)[C@H]5O[C@]543)[C@]21C (stereo partly specified)
Ans. inactive

Qu. Outcome? Cc1cccc(CN2CCN(C(c3ccccc3)c3ccc(Cl)cc3)CC2)c1 (stereo unspecified)
Ans. active

----------
Assay Overview: chemical genetic growth profiling, strain panel (AID 1159580);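 also: tested at 20 µM; growth read once vehicle control cultures reached saturation at 30 °C; 1 = growth at the plate median or of vehicle wells; lower values mean less growth of the strain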
Measurement Setup: S. cerevisiae deletion strains, growth OD, locus YLR357W, strain rsc2, active compounds read low
The campaign covered roughly 5,500 compounds. About 2,000 (36%) were called active. Inconclusive results (about 18%) are left out. This is one part of the list.
Some molecules, each annotated with its measured normalized growth.
Enter the number alone.

Before answering, review these 10 worked examples.
COP(=S)(OC)Oc1ccc(SC)c(C)c1 | 1.1
CCn1cc(C(=O)O)c(=O)c2cnc(N3CCNCC3)nc21 | 1.01
COc1ccc(/C=C/C(=O)c2ccc(O)cc2O)cc1 | 0.633
O=C(O)c1cc(=O)c2c(OCC(O)COc3cccc4oc(C(=O)O)cc(=O)c34)cccc2o1 | 1.01
CCn1cc(C(=O)O)c(=O)c2cnc(N3CCCC3)nc21 | 1.01
N[C@@H](CCC(=O)N[C@@H](CCSC(CC(=O)O)C(=O)O)C(=O)NCC(=O)O)C(=O)O (stereo partly drawn) | 0.996
CC[C@@H](C(=O)[C@@H](C)[C@@H](O)[C@H](C)[C@@H]1O[C@@H]([C@@H](CC)C(=O)O)CC[C@@H]1C)[C@H]1OC2(C=C[C@@H](O)[C@]3(CC[C@@](C)([C@H]4CC[C@](O)(CC)[C@H](C)O4)O3)O2)[C@H](C)C[C@@H]1C (stereo partly drawn) | 0.988
O=C(NC(Cc1cc(=O)[nH]c2ccccc12)C(=O)O)c1ccc(Cl)cc1 (stereo not drawn) | 0.993
CCCc1cc(OC)c2c(c1)OCO2 | 0.974
C[C@](N)(Cc1ccc(O)cc1)C(=O)O | 0.982

Here is the next item to consider.
Qu. Name the recorded normalized growth of the item CCC(COC(=O)c1cc(OC)c(OC)c(OC)c1)(c1ccccc1)N(C)C (stereo not drawn) in your answer.
Ans. 0.966
